// data source = patent US20220024882A1

Test system: PC-3 PIP/flu tumor-bearing mice
Assay: Biodistribution study in PC-3 PIP/flu tumor-bearing mice
Format: in vivo, athymic nude Balb/c mice
Settings: 4 h p.i., PC-3 PIP/flu tumor-bearing mice
recorded_endpoint: Heart

molecule	assay_result
CC(C)Cc1ccc(C(C)C(=O)NCC[C@H](NC(=O)CN2CCN(CC(=O)O)CCN(CC(=O)O)CCN(CC(=O)O)CC2)C(=O)NCC2CCC(C(=O)N[C@@H](Cc3ccc4ccccc4c3)C(=O)NCCCC[C@H](NC(=O)N[C@@H](CCC(=O)O)C(=O)O)C(=O)O)CC2)cc1 (stereo partly drawn) [^177Lu-Ibu-sPSMA, metal not drawn]	2.4 ± 0.2 % IA/g
CC(C)Cc1ccc(C(C)C(=O)NC(CC(N)=O)C(=O)NCCCCC(NC(=O)CN2CCN(CC(=O)O)CCN(CC(=O)O)CCN(CC(=O)O)CC2)C(=O)NCC2CCC(C(=O)NC(Cc3ccc4ccccc4c3)C(=O)NCCCCC(NC(=O)NC(CCC(=O)O)C(=O)O)C(=O)O)CC2)cc1 (stereo not drawn) [^177Lu-Ibu-N-PSMA, metal not drawn]	1.23 ± 0.61 % IA/g
CC(C)Cc1ccc(C(C)C(=O)NC(CCN)C(=O)NCCCCC(NC(=O)CN2CCN(CC(=O)O)CCN(CC(=O)O)CCN(CC(=O)O)CC2)C(=O)NCC2CCC(C(=O)NC(Cc3ccc4ccccc4c3)C(=O)NCCCCC(NC(=O)NC(CCC(=O)O)C(=O)O)C(=O)O)CC2)cc1 (stereo not drawn) [^177Lu-Ibu-DAB-PSMA, metal not drawn]	1.32 ± 0.10 % IA/g

----------
Reported values of Tumor-to-kidney for individual entries
System: PC-3 PIP/flu tumor-bearing mice
Experiment: Biodistribution study in PC-3 PIP/flu tumor-bearing mice
Type: in vivo, athymic nude Balb/c mice
Details: 24 h p.i., PC-3 PIP/flu tumor-bearing mice

compound	tested_target	Tumor-to-kidney
CC(C)Cc1ccc(C(C)C(=O)NC(CC(=O)O)C(=O)NCCCCC(NC(=O)CN2CCN(CC(=O)O)CCN(CC(=O)O)CCN(CC(=O)O)CC2)C(=O)NCC2CCC(C(=O)NC(Cc3ccc4ccccc4c3)C(=O)NCCCCC(NC(=O)NC(CCC(=O)O)C(=O)O)C(=O)O)CC2)cc1 (stereo not drawn) [^177Lu-Ibu-Dα-PSMA, metal not drawn]	PC-3 PIP/flu tumor-bearing mice	3.56
CC(C)Cc1ccc(C(C)C(=O)NCC[C@H](NC(=O)CN2CCN(CC(=O)O)CCN(CC(=O)O)CCN(CC(=O)O)CC2)C(=O)NCC2CCC(C(=O)N[C@@H](Cc3ccc4ccccc4c3)C(=O)NCCCC[C@H](NC(=O)N[C@@H](CCC(=O)O)C(=O)O)C(=O)O)CC2)cc1 (stereo partly drawn) [^177Lu-Ibu-sPSMA, metal not drawn]	PC-3 PIP/flu tumor-bearing mice	13
CC(C)Cc1ccc(C(C)C(=O)NC(CCN)C(=O)NCCCCC(NC(=O)CN2CCN(CC(=O)O)CCN(CC(=O)O)CCN(CC(=O)O)CC2)C(=O)NCC2CCC(C(=O)NC(Cc3ccc4ccccc4c3)C(=O)NCCCCC(NC(=O)NC(CCC(=O)O)C(=O)O)C(=O)O)CC2)cc1 (stereo not drawn) [^177Lu-Ibu-DAB-PSMA, metal not drawn]	PC-3 PIP/flu tumor-bearing mice	8.88
CC(C)Cc1ccc(C(C)C(=O)NCCCCC(NC(=O)CN2CCN(CC(=O)O)CCN(CC(=O)O)CCN(CC(=O)O)CC2)C(=O)NCC2CCC(C(=O)NC(Cc3ccc4ccccc4c3)C(=O)NCCCCC(NC(=O)NC(CCC(=O)O)C(=O)O)C(=O)O)CC2)cc1 (stereo not drawn) [^177Lu-Ibu-PSMA, metal not drawn]	PC-3 PIP/flu tumor-bearing mice	5.36
CC(C)Cc1ccc(C(C)C(=O)NC(CC(=O)NCCCCC(NC(=O)CN2CCN(CC(=O)O)CCN(CC(=O)O)CCN(CC(=O)O)CC2)C(=O)NCC2CCC(C(=O)NC(Cc3ccc4ccccc4c3)C(=O)NCCCCC(NC(=O)NC(CCC(=O)O)C(=O)O)C(=O)O)CC2)C(=O)O)cc1 (stereo not drawn) [^177Lu-Ibu-Dβ-PSMA, metal not drawn]	PC-3 PIP/flu tumor-bearing mice	4.90
CC(C)Cc1ccc(C(C)C(=O)NC(CC(N)=O)C(=O)NCCCCC(NC(=O)CN2CCN(CC(=O)O)CCN(CC(=O)O)CCN(CC(=O)O)CC2)C(=O)NCC2CCC(C(=O)NC(Cc3ccc4ccccc4c3)C(=O)NCCCCC(NC(=O)NC(CCC(=O)O)C(=O)O)C(=O)O)CC2)cc1 (stereo not drawn) [^177Lu-Ibu-N-PSMA, metal not drawn]	PC-3 PIP/flu tumor-bearing mice	6.90

----------
System: PC-3 PIP/flu tumor-bearing mice
Assay: Biodistribution study in PC-3 PIP/flu tumor-bearing mice
Type: in vivo, athymic nude Balb/c mice
Settings: 24 h p.i., PC-3 PIP/flu tumor-bearing mice

compound	tested_target	Intestines
CC(C)Cc1ccc(C(C)C(=O)NC(CCN)C(=O)NCCCCC(NC(=O)CN2CCN(CC(=O)O)CCN(CC(=O)O)CCN(CC(=O)O)CC2)C(=O)NCC2CCC(C(=O)NC(Cc3ccc4ccccc4c3)C(=O)NCCCCC(NC(=O)NC(CCC(=O)O)C(=O)O)C(=O)O)CC2)cc1 (stereo not drawn) [^177Lu-Ibu-DAB-PSMA, metal not drawn]	PC-3 PIP/flu tumor-bearing mice	0.11 ± 0.03 % IA/g
CC(C)Cc1ccc(C(C)C(=O)NCC[C@H](NC(=O)CN2CCN(CC(=O)O)CCN(CC(=O)O)CCN(CC(=O)O)CC2)C(=O)NCC2CCC(C(=O)N[C@@H](Cc3ccc4ccccc4c3)C(=O)NCCCC[C@H](NC(=O)N[C@@H](CCC(=O)O)C(=O)O)C(=O)O)CC2)cc1 (stereo partly drawn) [^177Lu-Ibu-sPSMA, metal not drawn]	PC-3 PIP/flu tumor-bearing mice	0.31 ± 0.07 % IA/g
CC(C)Cc1ccc(C(C)C(=O)NC(CC(=O)NCCCCC(NC(=O)CN2CCN(CC(=O)O)CCN(CC(=O)O)CCN(CC(=O)O)CC2)C(=O)NCC2CCC(C(=O)NC(Cc3ccc4ccccc4c3)C(=O)NCCCCC(NC(=O)NC(CCC(=O)O)C(=O)O)C(=O)O)CC2)C(=O)O)cc1 (stereo not drawn) [^177Lu-Ibu-Dβ-PSMA, metal not drawn]	PC-3 PIP/flu tumor-bearing mice	0.40 ± 0.07 % IA/g
CC(C)Cc1ccc(C(C)C(=O)NCCCCC(NC(=O)CN2CCN(CC(=O)O)CCN(CC(=O)O)CCN(CC(=O)O)CC2)C(=O)NCC2CCC(C(=O)NC(Cc3ccc4ccccc4c3)C(=O)NCCCCC(NC(=O)NC(CCC(=O)O)C(=O)O)C(=O)O)CC2)cc1 (stereo not drawn) [^177Lu-Ibu-PSMA, metal not drawn]	PC-3 PIP/flu tumor-bearing mice	0.23 ± 0.04 % IA/g
CC(C)Cc1ccc(C(C)C(=O)NC(CC(=O)O)C(=O)NCCCCC(NC(=O)CN2CCN(CC(=O)O)CCN(CC(=O)O)CCN(CC(=O)O)CC2)C(=O)NCC2CCC(C(=O)NC(Cc3ccc4ccccc4c3)C(=O)NCCCCC(NC(=O)NC(CCC(=O)O)C(=O)O)C(=O)O)CC2)cc1 (stereo not drawn) [^177Lu-Ibu-Dα-PSMA, metal not drawn]	PC-3 PIP/flu tumor-bearing mice	0.11 ± 0.02 % IA/g
CC(C)Cc1ccc(C(C)C(=O)NC(CC(N)=O)C(=O)NCCCCC(NC(=O)CN2CCN(CC(=O)O)CCN(CC(=O)O)CCN(CC(=O)O)CC2)C(=O)NCC2CCC(C(=O)NC(Cc3ccc4ccccc4c3)C(=O)NCCCCC(NC(=O)NC(CCC(=O)O)C(=O)O)C(=O)O)CC2)cc1 (stereo not drawn) [^177Lu-Ibu-N-PSMA, metal not drawn]	PC-3 PIP/flu tumor-bearing mice	0.09 ± 0.02 % IA/g

----------
Test: n-Octanol/PBS distribution coefficient (log D)
Assay type: physicochemical

molecule	logD
CC(C)Cc1ccc(C(C)C(=O)NCC[C@H](NC(=O)CN2CCN(CC(=O)O)CCN(CC(=O)O)CCN(CC(=O)O)CC2)C(=O)NCC2CCC(C(=O)N[C@@H](Cc3ccc4ccccc4c3)C(=O)NCCCC[C@H](NC(=O)N[C@@H](CCC(=O)O)C(=O)O)C(=O)O)CC2)cc1 (stereo partly shown) [^177Lu-Ibu-sPSMA, metal not drawn]	-2.43

----------
Collected Kidneys values appear next to each entry.
Tested on: PC-3 PIP/flu tumor-bearing mice
Test: Biodistribution study in PC-3 PIP/flu tumor-bearing mice
Assay type: in vivo, athymic nude Balb/c mice
Details: 4 h p.i., PC-3 PIP/flu tumor-bearing mice
Protocol: In vivo experiments were approved by the local veterinarian department and conducted in accordance with the Swiss law of animal protection. Mice were obtained from Charles River Laboratories, Sulzfeld, Germany, at the age of 5-6 weeks. […] Biodistribution studies were performed 12-15 days after PC-3 PIP/flu tumor cell inoculation. […] Selected tissues and organs were collected, weighed and measured using a γ-counter. […]

molecule	Kidneys (% IA/g)
CC(C)Cc1ccc(C(C)C(=O)NC(CC(=O)O)C(=O)NCCCCC(NC(=O)CN2CCN(CC(=O)O)CCN(CC(=O)O)CCN(CC(=O)O)CC2)C(=O)NCC2CCC(C(=O)NC(Cc3ccc4ccccc4c3)C(=O)NCCCCC(NC(=O)NC(CCC(=O)O)C(=O)O)C(=O)O)CC2)cc1 (stereo not drawn) [^177Lu-Ibu-Dα-PSMA, metal not drawn]	27.2
CC(C)Cc1ccc(C(C)C(=O)NC(CC(N)=O)C(=O)NCCCCC(NC(=O)CN2CCN(CC(=O)O)CCN(CC(=O)O)CCN(CC(=O)O)CC2)C(=O)NCC2CCC(C(=O)NC(Cc3ccc4ccccc4c3)C(=O)NCCCCC(NC(=O)NC(CCC(=O)O)C(=O)O)C(=O)O)CC2)cc1 (stereo not drawn) [^177Lu-Ibu-N-PSMA, metal not drawn]	27.1
CC(C)Cc1ccc(C(C)C(=O)NC(CCN)C(=O)NCCCCC(NC(=O)CN2CCN(CC(=O)O)CCN(CC(=O)O)CCN(CC(=O)O)CC2)C(=O)NCC2CCC(C(=O)NC(Cc3ccc4ccccc4c3)C(=O)NCCCCC(NC(=O)NC(CCC(=O)O)C(=O)O)C(=O)O)CC2)cc1 (stereo not drawn) [^177Lu-Ibu-DAB-PSMA, metal not drawn]	19.4
CC(C)Cc1ccc(C(C)C(=O)NCCCCC(NC(=O)CN2CCN(CC(=O)O)CCN(CC(=O)O)CCN(CC(=O)O)CC2)C(=O)NCC2CCC(C(=O)NC(Cc3ccc4ccccc4c3)C(=O)NCCCCC(NC(=O)NC(CCC(=O)O)C(=O)O)C(=O)O)CC2)cc1 (stereo not drawn) [^177Lu-Ibu-PSMA, metal not drawn]	32.5
CC(C)Cc1ccc(C(C)C(=O)NCC[C@H](NC(=O)CN2CCN(CC(=O)O)CCN(CC(=O)O)CCN(CC(=O)O)CC2)C(=O)NCC2CCC(C(=O)N[C@@H](Cc3ccc4ccccc4c3)C(=O)NCCCC[C@H](NC(=O)N[C@@H](CCC(=O)O)C(=O)O)C(=O)O)CC2)cc1 (stereo partly drawn) [^177Lu-Ibu-sPSMA, metal not drawn]	28
CC(C)Cc1ccc(C(C)C(=O)NC(CC(=O)NCCCCC(NC(=O)CN2CCN(CC(=O)O)CCN(CC(=O)O)CCN(CC(=O)O)CC2)C(=O)NCC2CCC(C(=O)NC(Cc3ccc4ccccc4c3)C(=O)NCCCCC(NC(=O)NC(CCC(=O)O)C(=O)O)C(=O)O)CC2)C(=O)O)cc1 (stereo not drawn) [^177Lu-Ibu-Dβ-PSMA, metal not drawn]	32.2
